Tested on: Caudate
Test: Drug uptake in anesthetized cynomolgus monkey brain caudate after 4.5 mins postinjection
Type: ADME, organism-based, Macaca fascicularis, Caudate nucleus
Conditions: in vivo, 0.075 h
Listed next: entries and their corresponding Drug uptake.
The reply should be a number, written without any unit.

compound: O=C(OCC[18F])C1C2CCC(CC1c1ccc(/C=C\I)cc1)N2 (stereo not given)
reported-result: 0.78
--
compound: O=C(OCCC[18F])C1C2CCC(CC1c1cccc(/C=C\Br)c1)N2 (stereo not given)
reported-result: 2.17
--
compound: O=C(OCC[18F])C1C2CCC(CC1c1cccc(/C=C\Br)c1)N2 (stereo not given)
reported-result: 1.12
--
compound: O=C(OCCC[18F])C1C2CCC(CC1c1cccc(/C=C\I)c1)N2 (stereo not given)
reported-result: 1.55

The record that follows has no Drug uptake shown yet.
Prompt: Need Drug uptake of O=C(OCC[18F])C1C2CCC(CC1c1cccc(/C=C\I)c1)N2 (stereo not given) , thanks.
Completion: 1.23

====

Property: Ratio; scope: individual compounds
Experiment: Ratio of drug uptake in frontal lobe to cerebellum in anesthetized cynomolgus monkey after 3.5 mins postinjection
Format: ADME, organism-based, Macaca fascicularis
Details: in vivo
// print number alone

compound: O=C(OCC[18F])C1C2CCC(CC1c1cccc(/C=C\I)c1)N2 (stereo not given)
Ratio: 0.6

Prompt: Suppose we examine the compound O=C(OCCC[18F])C1C2CCC(CC1c1cccc(/C=C\Br)c1)N2 (stereo not given) ; what Ratio value has been reported?
Completion: 0.5

Prompt: # query: Ratio of entry O=C(OCC[18F])C1C2CCC(CC1c1ccc(/C=C\I)cc1)N2 (stereo not given)
Completion: 0.5

Prompt: Value lookup for Ratio; key = O=C(OCCC[18F])C1C2CCC(CC1c1cccc(/C=C\I)c1)N2 (stereo not given)
Completion: 0.4

Prompt: State the recorded Ratio for this entry: O=C(OCC[18F])C1C2CCC(CC1c1cccc(/C=C\Br)c1)N2 (stereo not given)
Completion: 0.5

====

Test system: Putamen
Test: Drug uptake in anesthetized cynomolgus monkey brain putamen after 165 mins postinjection
Type: ADME, organism-based, Macaca fascicularis
Details: in vivo, 2.75 h
measurement-label: Drug uptake
Kindly provide the number alone.

compound: O=C(OCC[18F])C1C2CCC(CC1c1cccc(/C=C\I)c1)N2 (stereo not given)
assayed-system: Putamen
Drug uptake: 3.02
--
compound: O=C(OCC[18F])C1C2CCC(CC1c1cccc(/C=C\Br)c1)N2 (stereo not given)
assayed-system: Putamen
Drug uptake: 3.92
--
compound: O=C(OCC[18F])C1C2CCC(CC1c1ccc(/C=C\I)cc1)N2 (stereo not given)
assayed-system: Putamen
Drug uptake: 4.22
--
compound: O=C(OCCC[18F])C1C2CCC(CC1c1cccc(/C=C\Br)c1)N2 (stereo not given)
assayed-system: Putamen
Drug uptake: 4.31

Prompt: Given O=C(OCCC[18F])C1C2CCC(CC1c1cccc(/C=C\I)c1)N2 (stereo not given) , state its recorded Drug uptake.
Completion: 3.74

====

Assay: Ratio of drug uptake in occipital lobe to cerebellum in anesthetized cynomolgus monkey after 95 mins postinjection
Type: ADME, organism-based, Macaca fascicularis
Conditions: in vivo
Listed molecules paired with reported Ratio
Output spec: single numeric token, no unit.

Answered examples (3):
molecule: O=C(OCCC[18F])C1C2CCC(CC1c1cccc(/C=C\Br)c1)N2 (centres undefined)
reported-result: 1.1
--
molecule: O=C(OCC[18F])C1C2CCC(CC1c1cccc(/C=C\I)c1)N2 (centres undefined)
reported-result: 0.9
--
molecule: O=C(OCC[18F])C1C2CCC(CC1c1cccc(/C=C\Br)c1)N2 (centres undefined)
reported-result: 1

Proceeding to the next molecule to report its Ratio.
Prompt: What value of Ratio has been reported for the following molecule? O=C(OCCC[18F])C1C2CCC(CC1c1cccc(/C=C\I)c1)N2 (centres undefined)
Completion: 1
